Values compiled from patent USRE29225E.

System: S. aureus
Measured MIC accompanies every entry in the list below.
Value and unit, in that order.

Query: Requested read-out: MIC. Entry: O=C(Nc1ccc(Cl)c(Cl)c1)N1CN2CN(C/C=C\Cl)CN(C2)C1 [Example 3 g)]
Result: 50 µg/mL

New cases:
Query: Requested read-out: MIC. Entry: Cc1ccc(C)c(NC(=O)N2CN3CN(C/C=C\Cl)CN(C3)C2)c1 [Example 3 c)]
Result: 75 µg/mL

Query: Requested read-out: MIC. Entry: O=C(Nc1ccc(Cl)cc1)N1CN2CN(C/C=C\Cl)CN(C2)C1 [Example 3 d)]
Result: 75 µg/mL

Query: Requested read-out: MIC. Entry: S=C(Nc1ccc(Cl)c(Cl)c1)N1CN2CN(C/C=C\Cl)CN(C2)C1 [Example 3 l)]
Result: 50 µg/mL

Query: Requested read-out: MIC. Entry: S=C(Nc1ccccc1)N1CN2CN(C/C=C\Cl)CN(C2)C1 [Example 2]
Result: 75 µg/mL

Query: Requested read-out: MIC. Entry: S=C(Nc1ccc(Cl)cc1)N1CN2CN(C/C=C\Cl)CN(C2)C1 [Example 3 j)]
Result: 75 µg/mL

Query: Requested read-out: MIC. Entry: O=C(Nc1ccccc1)N1CN2CN(C/C=C\Cl)CN(C2)C1 [Example 1]
Result: 50 µg/mL

Query: Requested read-out: MIC. Entry: O=C(Nc1ccc(Br)cc1)N1CN2CN(C/C=C\Cl)CN(C2)C1 [Example 3 e)]
Result: 100 µg/mL

Query: Requested read-out: MIC. Entry: O=C(Nc1cc(Cl)ccc1Cl)N1CN2CN(C/C=C\Cl)CN(C2)C1 [Example 3 f)]
Result: 75 µg/mL

* * *

Tested on: C. pelliculosa
Measurement description: agar dilution test, C. pelliculosa
Type: cell-based
Conditions: Hansenula anomala; C. pelliculosa; agar dilution; complete growth inhibition; read-out: Minimum Inhibitory Concentration, Cp
Metric name: MIC

Below, each entry is followed by its recorded MIC result.
Query: Requested read-out: MIC. Entry: "O=C(Nc1ccc(Cl)c(Cl)c1)N1CN2CN(C/C=C\Cl)CN(C2)C1"
Result: 250 µg/mL

Query: Requested read-out: MIC. Entry: "Cc1ccc(S(=O)(=O)NC(=O)N2CN3CN(C/C=C\Cl)CN(C3)C2)cc1"
Result: 500 µg/mL

Query: Requested read-out: MIC. Entry: "S=C(Nc1ccc(Cl)cc1)N1CN2CN(C/C=C\Cl)CN(C2)C1"
Result: 250 µg/mL

Query: Requested read-out: MIC. Entry: "O=C(Nc1cc(Cl)ccc1Cl)N1CN2CN(C/C=C\Cl)CN(C2)C1"
Result: 250 µg/mL

Query: Requested read-out: MIC. Entry: "Cc1ccc(NC(=S)N2CN3CN(C/C=C\Cl)CN(C3)C2)cc1C"
Result: 250 µg/mL

New cases:
Query: Requested read-out: MIC. Entry: "O=C(Nc1ccccc1)N1CN2CN(C/C=C\Cl)CN(C2)C1"
Result: 250 µg/mL

Query: Requested read-out: MIC. Entry: "S=C(Nc1ccc(Br)cc1)N1CN2CN(C/C=C\Cl)CN(C2)C1"
Result: 250 µg/mL

Query: Requested read-out: MIC. Entry: "O=C(NC1CCCCC1)N1CN2CN(C/C=C\Cl)CN(C2)C1"
Result: 250 µg/mL

Query: Requested read-out: MIC. Entry: "Cc1ccc(NC(=O)N2CN3CN(C/C=C\Cl)CN(C3)C2)cc1"
Result: 250 µg/mL

Query: Requested read-out: MIC. Entry: "Cc1ccc(C)c(NC(=O)N2CN3CN(C/C=C\Cl)CN(C3)C2)c1"
Result: 250 µg/mL

Query: Requested read-out: MIC. Entry: "O=C(Nc1ccc(Cl)cc1)N1CN2CN(C/C=C\Cl)CN(C2)C1"
Result: 250 µg/mL

Query: Requested read-out: MIC. Entry: "S=C(Nc1ccc(Cl)c(Cl)c1)N1CN2CN(C/C=C\Cl)CN(C2)C1"
Result: 250 µg/mL

Query: Requested read-out: MIC. Entry: "S=C(Nc1ccccc1)N1CN2CN(C/C=C\Cl)CN(C2)C1"
Result: > 500 µg/mL
